// provenance: patent US7232912B2

Biological target: CDK4/cyclin D3 (Homo sapiens)
Sequence (P11802 2-303 limits assumed): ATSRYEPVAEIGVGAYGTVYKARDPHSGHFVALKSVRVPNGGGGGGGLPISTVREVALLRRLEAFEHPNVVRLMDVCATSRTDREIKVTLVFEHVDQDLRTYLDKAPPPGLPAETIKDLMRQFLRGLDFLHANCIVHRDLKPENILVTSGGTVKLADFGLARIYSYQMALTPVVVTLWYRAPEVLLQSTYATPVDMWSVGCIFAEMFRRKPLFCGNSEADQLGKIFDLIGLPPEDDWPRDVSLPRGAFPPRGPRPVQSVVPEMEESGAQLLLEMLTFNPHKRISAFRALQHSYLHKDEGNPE
Sequence (P30281 1-264 limits assumed, further chain): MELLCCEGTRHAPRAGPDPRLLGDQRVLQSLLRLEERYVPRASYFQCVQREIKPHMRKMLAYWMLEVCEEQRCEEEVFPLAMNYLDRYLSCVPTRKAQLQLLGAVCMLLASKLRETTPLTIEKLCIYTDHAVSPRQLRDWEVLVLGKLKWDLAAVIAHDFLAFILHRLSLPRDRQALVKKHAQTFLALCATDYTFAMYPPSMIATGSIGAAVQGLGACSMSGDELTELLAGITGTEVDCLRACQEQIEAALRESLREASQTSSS
Assay: Inhibition of CDK4/Cyclin D Retinoblastoma Kinase Activity
Details: apparent Ki

{"structure": "Cc1c(CO)cncc1-c1ccc2[nH]nc(-c3nc4ccccc4[nH]3)c2c1", "scaleUnit": "µM", "Ki": 0.012}
{"structure": "CCNCc1cncc(-c2ccc3[nH]nc(-c4nc5c(C(=O)NC)cccc5[nH]4)c3c2)c1C", "scaleUnit": "µM", "Ki": 0.014}
{"structure": "c1ccc2c(-c3ccc4[nH]nc(-c5nc6ccccc6[nH]5)c4c3)cncc2c1", "scaleUnit": "µM", "Ki": 0.01}
{"structure": "Cc1cncc(-c2ccc3[nH]nc(-c4nc5ccccc5[nH]4)c3c2)c1C", "scaleUnit": "µM", "Ki": 0.0098}
{"structure": "Cc1c(-c2cccc(CO)c2)cncc1-c1ccc2[nH]nc(-c3nc4ccccc4[nH]3)c2c1", "scaleUnit": "µM", "Ki": 0.015}
{"structure": "Cc1c(-c2ccc3[nH]nc(/C=C/c4ccccc4)c3c2)ccc(CCCO)c1O", "scaleUnit": "µM", "Ki": 0.015}

----------
Biological target: FGFR1 tyrosine kinase (Homo sapiens, UniProt P11362, C488A/C584S/L457V)
Construct: the cytosolic domain of FGFR1 tyrosine kinase (amino acids 456–766); made in house; host or cells: Sf9 insect cells (baculovirus)
Sequence (P11362 456-766 L457V/C488A/C584S): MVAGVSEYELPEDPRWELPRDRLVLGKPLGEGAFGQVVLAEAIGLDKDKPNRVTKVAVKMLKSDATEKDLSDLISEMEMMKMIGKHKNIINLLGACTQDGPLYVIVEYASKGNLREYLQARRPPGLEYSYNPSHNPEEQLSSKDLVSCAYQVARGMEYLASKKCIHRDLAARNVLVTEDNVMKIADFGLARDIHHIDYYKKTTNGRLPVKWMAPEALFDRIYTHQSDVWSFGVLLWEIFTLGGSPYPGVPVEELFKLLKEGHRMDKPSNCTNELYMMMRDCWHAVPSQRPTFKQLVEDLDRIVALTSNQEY
Assay: Inhibition of phosphorylated FGF receptor tyrosine kinase activity
Type: biochemical
Conditions: read-out: FGF % Inhib. at 1 μM
Tag: condition met if measured inhibition at 1 µM is not below 40%, condition not met if it is.

{"structure": "C(=C\\c1n[nH]c2ccc(-c3ccnc4ccccc34)cc12)/c1ccccc1", "assayTarget": "FGFR1 tyrosine kinase (Homo sapiens, UniProt P11362, C488A/C584S/L457V)", "assignedCategory": "condition met"}
{"structure": "c1ccc2c(-c3ccc4[nH]nc(-c5nc6c(CN7CCCC7)cccc6[nH]5)c4c3)cncc2c1", "assayTarget": "FGFR1 tyrosine kinase (Homo sapiens, UniProt P11362, C488A/C584S/L457V)", "assignedCategory": "condition met"}
{"structure": "CS(=O)(=O)Nc1ccc2nc(-c3n[nH]c4ccc(-c5cncc6ccccc56)cc34)[nH]c2c1", "assayTarget": "FGFR1 tyrosine kinase (Homo sapiens, UniProt P11362, C488A/C584S/L457V)", "assignedCategory": "condition met"}
{"structure": "Clc1cccc2[nH]c(-c3n[nH]c4ccc(-c5cncc6ccccc56)cc34)nc12", "assayTarget": "FGFR1 tyrosine kinase (Homo sapiens, UniProt P11362, C488A/C584S/L457V)", "assignedCategory": "condition not met"}
{"structure": "Oc1ccc(F)c(-c2ccc3[nH]nc(-c4nc5ccccc5[nH]4)c3c2)c1F", "assayTarget": "FGFR1 tyrosine kinase (Homo sapiens, UniProt P11362, C488A/C584S/L457V)", "assignedCategory": "condition met"}
{"structure": "Cc1c(CN(C)C)cncc1-c1ccc2[nH]nc(-c3nc4ccccc4[nH]3)c2c1", "assayTarget": "FGFR1 tyrosine kinase (Homo sapiens, UniProt P11362, C488A/C584S/L457V)", "assignedCategory": "condition met"}
{"structure": "c1ccc2[nH]c(-c3n[nH]c4ccc(-c5cccc6[nH]ccc56)cc34)nc2c1", "assayTarget": "FGFR1 tyrosine kinase (Homo sapiens, UniProt P11362, C488A/C584S/L457V)", "assignedCategory": "condition met"}
{"structure": "CCN(CC)Cc1cccc2[nH]c(-c3n[nH]c4ccc(-c5cncc6ccccc56)cc34)nc12", "assayTarget": "FGFR1 tyrosine kinase (Homo sapiens, UniProt P11362, C488A/C584S/L457V)", "assignedCategory": "condition met"}
{"structure": "Nc1cccc2c(-c3ccc4[nH]nc(/C=C/c5ccccc5)c4c3)cncc12", "assayTarget": "FGFR1 tyrosine kinase (Homo sapiens, UniProt P11362, C488A/C584S/L457V)", "assignedCategory": "condition met"}
{"structure": "Cc1c(O)cccc1-c1ccc2[nH]nc(-c3nc4ccccc4[nH]3)c2c1", "assayTarget": "FGFR1 tyrosine kinase (Homo sapiens, UniProt P11362, C488A/C584S/L457V)", "assignedCategory": "condition met"}
{"structure": "OCCc1cccc2[nH]c(-c3n[nH]c4ccc(-c5cncc6ccccc56)cc34)nc12", "assayTarget": "FGFR1 tyrosine kinase (Homo sapiens, UniProt P11362, C488A/C584S/L457V)", "assignedCategory": "condition met"}
{"structure": "Cc1c(-c2cccnc2)cncc1-c1ccc2[nH]nc(-c3nc4ccccc4[nH]3)c2c1", "assayTarget": "FGFR1 tyrosine kinase (Homo sapiens, UniProt P11362, C488A/C584S/L457V)", "assignedCategory": "condition not met"}
{"structure": "Oc1cc(F)c(-c2ccc3[nH]nc(-c4nc5ccccc5[nH]4)c3c2)c(F)c1", "assayTarget": "FGFR1 tyrosine kinase (Homo sapiens, UniProt P11362, C488A/C584S/L457V)", "assignedCategory": "condition met"}
{"structure": "Cc1c(-c2ccncc2)cncc1-c1ccc2[nH]nc(-c3nc4ccc(NS(C)(=O)=O)cc4[nH]3)c2c1", "assayTarget": "FGFR1 tyrosine kinase (Homo sapiens, UniProt P11362, C488A/C584S/L457V)", "assignedCategory": "condition not met"}
